Type: in vivo, human
Details: both, human, plasma, oral, t1/2, non-PMs, obesity status Obese (BMI ≥95%); mean (SD)
recordedMetric: half-life (min)
Numeric only. Scale: min

For COc1ccnc(C[S+]([O-])c2nc3ccc(OC(F)F)cc3[nH]2)c1OC (stereo not shown) [pantoprazole] , what is its reported half-life?
58.2

* * *

Type: in vivo, human
Conditions: both, human, plasma, oral, t1/2, obese non-PMs, AST High (>Q3); mean (SD)
recordedMetric: half-life (min)
Numeric only. Scale: min

For COc1ccnc(C[S+]([O-])c2nc3ccc(OC(F)F)cc3[nH]2)c1OC (stereo not shown) , what is its reported half-life?
51
